- TGT: T1, orthogonal hCD122 receptor (hoRb), hCD122 with H133D and Y134F (human, UniProt P14784 27-550)
- T1 sequence: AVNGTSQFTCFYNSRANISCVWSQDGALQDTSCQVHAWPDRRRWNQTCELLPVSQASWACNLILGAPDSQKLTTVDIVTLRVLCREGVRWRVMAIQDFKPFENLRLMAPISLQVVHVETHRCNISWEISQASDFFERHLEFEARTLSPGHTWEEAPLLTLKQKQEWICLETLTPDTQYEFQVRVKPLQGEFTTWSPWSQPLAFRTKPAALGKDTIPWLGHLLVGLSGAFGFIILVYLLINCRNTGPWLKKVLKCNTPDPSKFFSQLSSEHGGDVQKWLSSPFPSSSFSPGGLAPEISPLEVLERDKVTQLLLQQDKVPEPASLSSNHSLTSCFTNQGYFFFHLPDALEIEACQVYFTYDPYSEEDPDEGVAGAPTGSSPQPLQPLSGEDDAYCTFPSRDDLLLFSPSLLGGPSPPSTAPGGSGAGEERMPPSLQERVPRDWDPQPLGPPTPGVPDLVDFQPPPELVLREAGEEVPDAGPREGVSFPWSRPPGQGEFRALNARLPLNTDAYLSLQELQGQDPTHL
- METHOD_SUMMARY: cell-based or functional assay
Parameter 3F8 Ortho Proliferation Signal 1:2: see the listing below.
ENDPOINT: 3F8 Ortho Proliferation Signal 1:2 (cts/min)

| BINDER | QUANTITATIVE_RESULT |
| --- | --- |
| F42K, SQVLKA (ligand) APTSSSTKKTQLQLSQLLVLLKAILNGINNYKNPKLTRMLTKKFYMPKKATELKHLQCLEEELKPLEEVLNLAQSKNFHLRPRDLISNINVIVLELKGSETTFMCEYADETATIVEFLNRWITFCQSIISTLT | 10300 |
| Q126G, SQVLKA (ligand) APTSSSTKKTQLQLSQLLVLLKAILNGINNYKNPKLTRMLTFKFYMPKKATELKHLQCLEEELKPLEEVLNLAQSKNFHLRPRDLISNINVIVLELKGSETTFMCEYADETATIVEFLNRWITFCGSIISTLT | 1540 |
| N88E, SQVLKA (ligand) APTSSSTKKTQLQLSQLLVLLKAILNGINNYKNPKLTRMLTFKFYMPKKATELKHLQCLEEELKPLEEVLNLAQSKNFHLRPRDLISEINVIVLELKGSETTFMCEYADETATIVEFLNRWITFCQSIISTLT | 326 |
| SQVLEA (ligand) APTSSSTKKTQLQLSQLLVLLEAILNGINNYKNPKLTRMLTFKFYMPKKATELKHLQCLEEELKPLEEVLNLAQSKNFHLRPRDLISNINVIVLELKGSETTFMCEYADETATIVEFLNRWITFCQSIISTLT | 33400 |
